Tested on: Brassica napus (BRSNW)
Assay type: in vivo
CONDITION_LABEL: 80 g/ha, crop plant compatibility, in comparison to untreated controls
From the text: Seeds of monocotyledonous and dicotyledonous weed plants and crop plants are placed in plastic or organic planting pots and covered with soil. […] After about 3 weeks, the effect of the preparations is scored visually in comparison with untreated controls as percentages. […]
RECORDED_ENDPOINT: Pre-emergence action against BRSNW in % (%)
Kindly answer with a numeric value in %, unit omitted.

Here is how some compounds turned out for Pre-emergence action against BRSNW in %.
[
  {
    "COMPOUND": "O=C(O)C1CCN(C(=O)COc2nn(-c3ccccn3)c(-c3cncc(F)c3)c2Br)C1 (racemic) [Example I-63]",
    "Pre-emergence action against BRSNW in % / %": 0
  },
  {
    "COMPOUND": "CCOC(=O)COc1nn(-c2ncccc2C(F)(F)F)c(-c2ccc(F)nc2)c1Br [Example I-335]",
    "Pre-emergence action against BRSNW in % / %": 0
  },
  {
    "COMPOUND": "COC(=O)CNC(=O)COc1nn(-c2ccccn2)c(-c2ccc(F)nc2)c1F [Example I-377]",
    "Pre-emergence action against BRSNW in % / %": 0
  },
  {
    "COMPOUND": "COC(=O)C1CCCN1C(=O)COc1nn(-c2ccccn2)c(-c2ccc(F)nc2)c1Br (stereo not shown) [Example I-110]",
    "Pre-emergence action against BRSNW in % / %": 20
  },
  {
    "COMPOUND": "CCOC(=O)COc1nn(-c2ccc(Br)c(C)n2)c(-c2cncc(F)c2)c1Br [Example I-161]",
    "Pre-emergence action against BRSNW in % / %": 10
  }
]

Please report the recorded Pre-emergence action against BRSNW in % for CCOC(=O)COc1nn(-c2ncccc2OC)c(-c2ccc(F)nc2)c1I [Example I-386] .
0

Try the compound COC(=O)CCOC(=O)[C@@H](C)Oc1nn(-c2ccccn2)c(-c2ccc(Cl)nc2)c1Cl [Example I-245]
0

Try the compound C[C@@H](Oc1nn(-c2ncccc2Cl)c(-c2ccc(F)nc2)c1Br)C(=O)O [Example I-25]
10

Try the compound COC(=O)CNC(=O)CSc1nn(-c2ccccn2)c(-c2cncnc2)c1Br [Example I-65]
20

Try the compound O=C(O)C1CCN(C(=O)COc2nn(-c3ccccn3)c(-c3ccc(F)nc3)c2Br)CC1 [Example I-62]
0

Try the compound COC(=O)COc1nn(-c2ncccc2F)c(-c2cncc(F)c2)c1Br [Example I-49]
10

Try the compound COC(=O)CN(C)C(=O)COc1nn(-c2ccnc(Cl)c2)c(-c2ccc(F)nc2)c1Br [III-21]
20

Try the compound C[C@@H](Oc1nn(-c2ncccc2F)c(-c2ccc(F)nc2)c1Br)C(=O)O [Example I-50]
0

Try the compound C[C@@H](Oc1nn(-c2ccc(F)cn2)c(-c2cncc(F)c2)c1Br)C(=O)O [Example I-13]
10

Try the compound COc1cccnc1-n1nc(OCC(=O)O)c(Br)c1-c1ccc(F)nc1 [Example I-363]
0

Try the compound COC(=O)[C@@H](C)Oc1nn(-c2ccccn2)c(-c2ccc(Cl)nc2)c1Br [Example I-242]
20

The measured values listed here are drawn from patent US20240041042A1.
